Biological target: T1, Orencia
T1 sequence (chain, INN chains, looked up, looked up): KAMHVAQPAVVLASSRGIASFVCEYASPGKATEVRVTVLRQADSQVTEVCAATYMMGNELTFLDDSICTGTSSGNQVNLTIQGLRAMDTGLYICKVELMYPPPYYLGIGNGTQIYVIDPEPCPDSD
Experiment: ELISA, MBP fusion in E. coli lysate on Orencia
Could you label it yes if measured ELISA A450 is 0.6 or higher, and no otherwise?

binder	answerLabel
GGCMHPFLQVVSHHFCGG (peptide, not shown: large carriers; small tags and cut ends, MBP fusion; also called #27) [C4-302mat-2-100-4]	no
GGCMHPFLLVVSRHFCGR (peptide, not shown: large carriers; small tags and cut ends, MBP fusion) [C4-302mat-2-100-40]	no
GGCMHPFLPILSHHFCAG (peptide, not shown: large carriers; small tags and cut ends, MBP fusion; also called #21) [C4-302mat-3-1-32]	yes

Query: Could you please find out whether GGCLHPFLPIVSHHFCGR (peptide, not shown: large carriers; small tags and cut ends, MBP fusion; also called clone #10; No. #10) [C4-302mat-3-100-44] has ELISA A450 that meets 0.6 or exceeds it?
Reply: yes

Query: Could you please find out whether GGCMHPFLPVASHHFCGG (peptide, not shown: large carriers; small tags and cut ends, MBP fusion) [C4-302mat-1-1-35] has ELISA A450 that meets 0.6 or exceeds it?
Reply: no

Query: Could you please find out whether GGCMHPFLRIVSQHFCRR (peptide, not shown: large carriers; small tags and cut ends, MBP fusion; also called #35) [C4-302mat-2-1-24] has ELISA A450 that meets 0.6 or exceeds it?
Reply: no
